Listed here are compounds together with their documented T/C.
system: CD2F1 mice, L1210 leukemia ip, survival T/C; experiment: NCI In Vivo Anticancer Drug Screen. Data for tumor model L1210 Leukemia (intraperitoneal) in CD2F1 (CDF1) mice; conditions: endpoint: mean survival time; dose: 50.0 mg/kg/injection; schedule: Q01DX009 (ip); vehicle: saline; higher = longer survival
Toxic doses and inconclusive results are not listed.

These solved cases illustrate the format of a correct answer.
C=C(NC(=O)C(=C)NC(=O)c1csc(C2=NC3c4csc(n4)C4NC(=O)c5csc(n5)C(C(C)(O)C(C)O)NC(=O)C5CSC(=N5)/C(=C/C)NC(=O)C(C(C)O)NC(=O)c5csc(n5)C3(CC2)NC(=O)C(C)NC(=O)C(=C)NC(=O)C(=C)NC(=O)C(C(C)C)NC2C=Cc3c(C(C)O)cc(nc3C2O)C(=O)OC4C)n1)C(N)=O (configuration not stated) ... 120 % of control
COc1cc2cc3c4cc(OC)c(OC)cc4cc[n+]3c(C)c2cc1OC (tested in a mixture with another compound) ... 95 % of control

# input If you can, please state the reported T/C value of `O=N[O-].[Co].[NH2-].[NH2-].[NH2-].[NH2-].[NH2-]` .
# output 105 % of control

# input If you can, please state the reported T/C value of `N=C(N)c1ccc(OCCOc2cccc(N)c2)cc1` .
# output 95 % of control

# input If you can, please state the reported T/C value of `CNC1(Cc2ccc(F)cc2)CCC1` .
# output 102 % of control

# input If you can, please state the reported T/C value of CCOC(=O)CCC(NC(=O)C(CSC(c1ccccc1)(c1ccccc1)c1ccccc1)NC(c1ccccc1)(c1ccccc1)c1ccccc1)C(=O)OCC (configuration not stated) .
# output 100 % of control

# input If you can, please state the reported T/C value of `NC(N)=N/N=C(/c1ccccc1)c1ccc(F)cc1` .
# output 101 % of control

* * *

Listed here are molecules together with their documented T/C.
system: CD2F1 mice, L1210 leukemia ip, survival T/C; test: NCI In Vivo Anticancer Drug Screen. Data for tumor model L1210 Leukemia (intraperitoneal) in CD2F1 (CDF1) mice; settings: endpoint: median survival time; dose: 50.0 mg/kg/injection; schedule: Q01DX005 (ip); vehicle: saline; higher = longer survival
Toxic doses and inconclusive results are not listed.

These solved cases illustrate the format of a correct answer.
Cc1ccc(C(=O)Nc2ccc(S(=O)(=O)O)c3cc(S(=O)(=O)O)cc(S(=O)(=O)O)c23)cc1NC(=O)c1cccc(NC(=O)Nc2cccc(C(=O)Nc3cc(C(=O)Nc4ccc(S(=O)(=O)O)c5cc(S(=O)(=O)O)cc(S(=O)(=O)O)c45)ccc3C)c2)c1 ... 116 % of control
COc1ccn(C2OC(=O)C(C)(C)C2=O)c(=O)n1 (centres undefined) ... 101 % of control
COc1nc(NC2OC(CO)C(O)C(O)C2O)cc(=O)[nH]1 (centres undefined) ... 100 % of control

# input If you can, please state the reported T/C value of CSc1ncnc2c1ccn2C1OC(CO)C(O)C1O (centres undefined) .
# output 102 % of control

* * *

system: CD2F1 mice, L1210 leukemia ip, survival T/C; assay: NCI In Vivo Anticancer Drug Screen. Data for tumor model L1210 Leukemia (intraperitoneal) in CD2F1 (CDF1) mice; details: endpoint: mean survival time; dose: 50.0 mg/kg/injection; schedule: Q01DX009 (ip); vehicle: saline with Tween-80; higher = longer survival
Toxic doses and inconclusive results are not listed.
Listed here are compounds together with their documented T/C.

These solved cases illustrate the format of a correct answer.
O=C(O)c1ccccc1/C=C/c1ccc([N+](=O)[O-])cc1 ... 95 % of control
CC(C)[CH2][Sn](=[O])[OH] ... 115 % of control

# input If you can, please state the reported T/C value of `CCCCCCCCCCCCCCCCCCN1CCOCC1` .
# output 94 % of control

# input If you can, please state the reported T/C value of `O=C(OC/C=C/CCl)c1ccc([N+](=O)[O-])cc1` .
# output 94 % of control

# input If you can, please state the reported T/C value of `CC(=O)Nc1ccc(C(=O)C=O)cc1` .
# output 113 % of control

# input If you can, please state the reported T/C value of C=C[Si]1(C)O[Si](C)(C=C)O[Si](C)(C=C)O1 (stereo not drawn) .
# output 93 % of control

# input If you can, please state the reported T/C value of `CN1CCN(C(=S)S)CC1` .
# output 100 % of control

# input If you can, please state the reported T/C value of `C=C(Br)CNC(=O)OCCCC` .
# output 88 % of control
